These measurements were taken from PubChem BioAssay AID624255.

# assay.notes: T. cruzi intracellular proliferation inhibitors, primary screen, cell-based, beta-gal Tulahuen parasites, NIH3T3 host, luminescence (AID 624255)
# condition.context: T. cruzi beta-gal in NIH3T3, GalScreen luminescence, 90 h; at 8.34 µM
Out of some 77,000 compounds screened, about 4,600 (6%) were called active. Not shown: some 1% with an inconclusive outcome.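 How the source made its calls: active means mean inhibition above about 93%, with at least 55% of replicates each passing it (limit read from the data, passing the limit was not always enough); inconclusive means only one of those two conditions holds; inactive means neither condition holds.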 The entries come from a sample that favours actives as a whole.
Bench note: report the call from active, inactive

Some solved entries appear below for comparison.
substance.smiles: COc1ccc(S(=O)(=O)N(C)C[C@H]2Oc3c(NC(=O)Nc4cccc5ccccc45)cccc3C(=O)N([C@@H](C)CO)C[C@H]2C)cc1
group: active
--
substance.smiles: COc1ccc(NC(=O)N(C)C[C@H]2Oc3c(NC(=O)NC(C)C)cccc3C(=O)N([C@@H](C)CO)C[C@H]2C)cc1
group: inactive
--
substance.smiles: O=C(Nc1ccc(Cl)cc1)N1C[C@@H]2[C@H](c3ccccc31)[C@@H](CO)N2C(=O)c1cccnc1
group: inactive
--
substance.smiles: COc1ccc(NC(=O)N(C)C[C@@H]2Oc3c(NC(=O)NC4CCCCC4)cccc3C(=O)N([C@H](C)CO)C[C@H]2C)cc1
group: inactive
--
substance.smiles: C[C@@H]1CN([C@@H](C)CO)C(=O)c2cccc(NC(=O)c3nc4ccccc4s3)c2O[C@H]1CN(C)S(=O)(=O)c1cccs1
group: inactive
--
substance.smiles: COc1ccc(S(=O)(=O)N(C)C[C@@H]2Oc3c(NC(=O)NC(C)C)cccc3C(=O)N([C@@H](C)CO)C[C@@H]2C)cc1
group: inactive

Qu. Assay outcome for `Cc1ccc(S(=O)(=O)N(C)C[C@@H]2Oc3c(NC(=O)c4nc5ccccc5s4)cccc3C(=O)N([C@H](C)CO)C[C@@H]2C)cc1` : what was it?
Ans. active

---

# assay.notes: T. cruzi intracellular proliferation inhibitors, primary screen, cell-based, beta-gal Tulahuen parasites, NIH3T3 host, luminescence (AID 624255)
# condition.context: T. cruzi beta-gal in NIH3T3, GalScreen luminescence, 90 h; at 8.34 µM; hits give high values
Out of some 77,000 compounds screened, about 4,600 (6%) were called active. Roughly 1% stayed inconclusive and do not appear here. The full list was thinned out, with actives kept by preference.
metric: inhibition

Solved entries (count: 3):
substance.smiles: C[C@@H]1CN([C@H](C)CO)C(=O)c2cc(NC(=O)Nc3ccccc3)ccc2O[C@@H]1CN(C)Cc1ccc(Cl)c(Cl)c1
inhibition: -114% (inactive)

substance.smiles: CC(C)C#Cc1ccc2c(c1)O[C@@H](CN(C)C(=O)NC(C)C)[C@H](C)CN([C@H](C)CO)S2(=O)=O
inhibition: 55.8% (inactive)

substance.smiles: C[C@@H]1CN([C@@H](C)CO)S(=O)(=O)c2ccc(C#Cc3ccccc3)cc2O[C@@H]1CN(C)C(=O)Nc1ccccc1
inhibition: 113% (active)

Qu. Reported inhibition for `C[C@@H]1CN([C@@H](C)CO)S(=O)(=O)c2ccc(C#Cc3ccc(F)cc3)cc2O[C@H]1CN(C)C(=O)c1ccccn1` : what is it?
Ans. 103% (active)

---

# assay.notes: T. cruzi intracellular proliferation inhibitors, primary screen, cell-based, beta-gal Tulahuen parasites, NIH3T3 host, luminescence (AID 624255)
# condition.context: T. cruzi beta-gal in NIH3T3, GalScreen luminescence, 90 h; at 8.34 µM; hits give high values
Out of some 77,000 compounds screened, about 4,600 (6%) were called active. About 1% were inconclusive and are not listed. The sample holds actives, similar compounds and a random draw of the others, so the mix is not that of the screen.
Categories are defined by ranges of inhibition, namely band A = under 20%, band B = from 20% up to 70%, band C = 70% and over

Some solved entries appear below for comparison.
compound: C[C@@H](NC(=O)C[C@@H]1CC[C@H]2[C@@H](COC[C@@H](O)CN2C(=O)Nc2cccc(F)c2)O1)c1ccccc1
group: band B
//
compound: CCC(=O)N(C)C[C@H]1Oc2ncc(-c3ccc(C#N)cc3)cc2C(=O)N([C@@H](C)CO)C[C@H]1C
group: band B
//
compound: Cc1noc(C)c1S(=O)(=O)Nc1ccc2c(c1)C(=O)N([C@@H](C)CO)C[C@@H](C)[C@H](CN(C)S(=O)(=O)c1ccc(Cl)cc1)OCCCC[C@H](C)O2
group: band C
//
compound: COc1ccc(S(=O)(=O)Nc2ccc3c(c2)C(=O)N([C@H](C)CO)C[C@H](C)[C@@H](CN(C)S(C)(=O)=O)OCCCC[C@@H](C)O3)cc1
group: band B
//
compound: COc1cccc(NC(=O)C[C@@H]2CC[C@H]3[C@@H](COc4ccc(NC(=O)C5CCOCC5)cc4C(=O)N3C)O2)c1
group: band B
//
compound: CC=Cc1ccc2n(c1=O)C[C@H]1[C@H](CO)[C@@H](C(=O)NCC3CC3)N(Cc3nccs3)[C@@H]21 (mixture of isomers)
group: band A
//
compound: COCC(=O)N1C[C@@H]2[C@H](c3ccccc31)[C@@H](CO)N2C(=O)C1CC1
group: band B
//
compound: CCNC(=O)C[C@@H]1CC[C@H]2[C@@H](COc3ccc(NC(=O)c4ccccc4Cl)cc3C(=O)N2C)O1
group: band A
//
compound: COc1cccc(NC(=O)N[C@@H]2CC[C@H](CC(=O)NCc3ccccn3)O[C@H]2CO)c1
group: band A
//
compound: O=C(Nc1ccccc1)N[C@H]1CC[C@H](CCNC(=O)c2ccccc2F)O[C@H]1CO
group: band B

Qu. Quick check: band for `C[C@H](CO)N1C[C@H](C)[C@H](CN(C)Cc2ccc(C(F)(F)F)cc2)OCCCC[C@H](C)Oc2ccc(NS(=O)(=O)c3ccc(Cl)cc3)cc2C1=O`
Ans. band C

Qu. Quick check: band for `C[C@@H]1CCCCO[C@H](CN(C)Cc2ccccc2)[C@H](C)CN([C@@H](C)CO)C(=O)c2cc(NS(=O)(=O)c3ccccc3)ccc2O1`
Ans. band C

Qu. Quick check: band for `Cc1noc(C)c1NC(=O)N(C)C[C@@H]1OCCCC[C@H](C)Oc2ccc(NC(=O)NC3CCCCC3)cc2C(=O)N([C@H](C)CO)C[C@@H]1C`
Ans. band B

Qu. Quick check: band for `C[C@@H]1CCCCO[C@H](CN(C)S(=O)(=O)c2cccs2)[C@H](C)CN([C@H](C)CO)C(=O)c2cc(NC(=O)c3ccccc3)ccc2O1`
Ans. band C

Qu. Quick check: band for `O=C(Nc1cccc(F)c1)N[C@@H]1CC[C@@H](CCn2cc(Cc3ccccc3)nn2)O[C@@H]1CO`
Ans. band B

Qu. Quick check: band for `C[C@@H]1CCCCO[C@H](CN(C)C(=O)NC2CCCCC2)[C@H](C)CN([C@H](C)CO)C(=O)c2cc(NC(=O)Nc3ccc(F)cc3)ccc2O1`
Ans. band C

Qu. Quick check: band for `CN(C)C(=O)C[C@@H]1CC[C@H]2[C@@H](COC[C@H](O)CN2C(=O)c2ccncc2)O1`
Ans. band B

Qu. Quick check: band for `COc1ccc(S(=O)(=O)Nc2ccc3c(c2)C(=O)N([C@@H](C)CO)C[C@H](C)[C@H](CN(C)S(=O)(=O)c2ccc(F)cc2)OCCCC[C@@H](C)O3)cc1`
Ans. band C

Qu. Quick check: band for `O=S(=O)(Cc1ccccc1)NCC[C@@H]1CC[C@@H](NS(=O)(=O)c2ccccc2)[C@@H](CO)O1`
Ans. band A

Qu. Quick check: band for `C[C@@H]1CN([C@H](C)CO)C(=O)c2cc(NC(=O)Nc3ccc(F)cc3)ccc2O[C@@H](C)CCCCO[C@@H]1CN(C)CC1CCCCC1`
Ans. band C

Qu. Quick check: band for `C[C@@H]1CCCCO[C@H](CN(C)Cc2ccccc2)[C@H](C)CN([C@H](C)CO)C(=O)c2cc(NS(=O)(=O)c3ccc(Cl)cc3)ccc2O1`
Ans. band C

Qu. Quick check: band for `CCC(=O)Nc1ccc2c(c1)C(=O)N(C)[C@@H]1CC[C@@H](CC(=O)NCCc3ccccc3)O[C@H]1CO2`
Ans. band B

Qu. Quick check: band for `C[C@@H]1CCCCO[C@@H](CN(C)Cc2ccc(C(F)(F)F)cc2)[C@H](C)CN([C@H](C)CO)C(=O)c2cc(NS(=O)(=O)c3ccc(F)cc3)ccc2O1`
Ans. band B

Qu. Quick check: band for `O=C(Nc1cc(Cl)cc(Cl)c1)N[C@@H]1CC[C@H](CCNS(=O)(=O)c2cccc(F)c2)O[C@H]1CO`
Ans. band A

Qu. Quick check: band for `CCCN1C[C@@H](C)[C@@H](OC)CN(C)C(=O)c2ccc(NC(=O)Nc3cccc(F)c3)cc2OC[C@@H]1C`
Ans. band A

Qu. Quick check: band for `C[C@@H]1CCCCO[C@H](CN(C)Cc2ccccc2)[C@@H](C)CN([C@H](C)CO)C(=O)c2cc(NS(=O)(=O)c3ccc(Cl)cc3)ccc2O1`
Ans. band A

Qu. Quick check: band for `C[C@@H]1CN([C@H](C)CO)C(=O)c2cc(NS(=O)(=O)c3cccs3)ccc2O[C@@H](C)CCCCO[C@H]1CN(C)Cc1ccc(C(F)(F)F)cc1`
Ans. band C
